The measurements presented in this section are drawn from PubChem BioAssay AID1233.

biological target: HMG-CoA reductase [Enterococcus faecalis] (UniProt Q9FD70); assay: inhibitors of E. faecalis class II HMGR, confirmation, biochemical, Enterococcus faecalis (AID 1233); conditions: purified E. faecalis HMGR, NADPH absorbance 340 nm kinetics; series mostly up to 100 µM
Results with a measured potency or affinity are listed apart. Activity calls are given as the source filed them.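 How the source made its calls: active means a dose-response curve fit returns a half-maximal inhibitory concentration, extrapolated values included; inactive means the fit returns no such concentration.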
ATTRIBUTE MEASURED: outcome

{"columns": ["MOLECULE", "SYSTEM TESTED", "ATTRIBUTE MEASURED", "VAL"],
 "data": [
  ["CCN(CC)c1ccc(-c2n[nH]c(=S)n2-c2ccccc2C)cc1", "HMG-CoA reductase [Enterococcus faecalis] (UniProt Q9FD70)", "outcome", "inactive"],
  ["COc1ccc(NC(=S)NCc2cccn2C)cc1", "HMG-CoA reductase [Enterococcus faecalis] (UniProt Q9FD70)", "outcome", "inactive"],
  ["CN(C)c1ccc(P(=O)(OCc2ccccc2)C(O)c2ccncc2)cc1 (stereo unspecified)", "HMG-CoA reductase [Enterococcus faecalis] (UniProt Q9FD70)", "outcome", "inactive"],
  ["Cc1csc(NC(=O)c2cnccn2)n1", "HMG-CoA reductase [Enterococcus faecalis] (UniProt Q9FD70)", "outcome", "inactive"]
]}

Exam item: For COC(=O)c1ccccc1NC(=O)NCc1ccco1 , what is its reported outcome?
Marked response: inactive

Exam item: // query: COC(=O)CC1COc2ccccc2N1C(=O)c1ccc(Br)cc1 (stereo unspecified)
Marked response: inactive

Exam item: Then what about the molecule COc1ccc(N2C(=O)C3C4C=CC(C5CC45)C3C2=O)c([N+](=O)[O-])c1 (stereo unspecified) ?
Marked response: inactive

Exam item: Same question, COC(=O)c1ccccc1NC(=O)CSc1nnc(CNS(=O)(=O)c2ccc(C)cc2)n1C this time
Marked response: inactive

Exam item: Can you handle COc1ccc(C(=O)Nc2ccc(NC(=O)c3cnccn3)cn2)cc1 next?
Marked response: inactive

Exam item: Field entry: C=CCOC(=O)c1sc(NC(=O)c2ccco2)nc1C
Marked response: inactive

Exam item: Another molecule to look at: CCC(=O)Nc1ccc2c(c1)nc(CN1CCCCC1)n2C
Marked response: inactive

----------
molecular target: HMG-CoA reductase [Enterococcus faecalis] (UniProt Q9FD70); test: inhibitors of E. faecalis class II HMGR, confirmation, biochemical, Enterococcus faecalis (AID 1233); conditions: purified E. faecalis HMGR, NADPH absorbance 340 nm kinetics; series mostly up to 100 µM
Results with a measured potency or affinity are listed apart. Active and inactive are the calls of the source.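 Rule for the calls: active = a dose-response curve fit returns a half-maximal inhibitory concentration, extrapolated values included; inactive = the fit returns no such concentration.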
ATTRIBUTE MEASURED: outcome

{"columns": ["MOLECULE", "VAL"],
 "data": [
  ["CCN(CC)S(=O)(=O)c1cccc(C(=O)N[C@H](C(=O)Nc2nc3ccccc3s2)C(C)C)c1", "inactive"],
  ["CCc1nc(N)nc(N)c1-c1ccc(Cl)cc1", "inactive"],
  ["c1ccc(-c2ccnc3nc(N4CCN(c5ccccc5)CC4)nn23)cc1", "inactive"],
  ["Cc1c(NC2(c3nnnn3-c3ccc(Br)cc3)CCCCC2)c(=O)n(-c2ccccc2)n1C", "inactive"]
]}

Consider the additional molecule presented here.
Exam item: Which outcome is reported for this molecule? Cc1ccc(OCC(O)CN2C(=O)NC(C)(C)C2=O)cc1 (stereo not given)
Marked response: inactive
